Recorded EC50 for the following molecules
molecular target: human orexin type 2 receptor (hOX2R) (Homo sapiens); construct: expressed in transfected cells; assay: Orexin type 2 receptor agonist activity, intracellular Ca2+ (FLIPR TETRA); type: cell-based; conditions: CHO cells expressing hOX2R; Ca2+ fluorescence area; read-out: hOx2 pEC50 (converted)

# Molecule, Experimental Endpoint, Measured Value
records = [
    ("CS(=O)(=O)N[C@H]1CCCN2C(=O)CCCc3ccccc3-c3cccc(c3)C[C@@H]12", "EC50", "10 to 100 nM"),
]

Ask | For the molecule CS(=O)(=O)N[C@H]1CCCN2C(=O)CCOc3ccccc3-c3cccc(c3F)C[C@@H]12 , what EC50 is on record?
Reply | 1 to 10 nM

Ask | Using the record for O=C1CCOc2cccc(F)c2-c2cccc(c2)C[C@H]2[C@@H](NS(=O)(=O)CF)CCCN12 , report its EC50.
Reply | 10 to 100 nM

Ask | # input molecule: CS(=O)(=O)N[C@H]1CCN2C(=O)C(F)(F)CCCCCc3ccccc3-c3cccc(c3)C[C@@H]12 ; wanted: its EC50
Reply | 10 to 100 nM

Ask | Any idea what its EC50 is? The molecule is CN1CCOc2ccccc2-c2cccc(c2)CC2C(NS(C)(=O)=O)CCCN2C1=O (racemic)
Reply | 100 to 1000 nM

Ask | // returns reported EC50 for input O=C1CCOc2ccccc2-c2cccc(c2F)C[C@H]2[C@@H](NS(=O)(=O)C(F)F)CCCN12
Reply | 0.1 to 1 nM

Ask | I'd like to know its EC50. The molecule in question is CS(=O)(=O)NC1CCCN2C(=O)CCCc3ccccc3-c3cccc(c3)CC12 (stereo not shown)
Reply | 10 to 100 nM

###

Target: human orexin type 2 receptor (hOX2R) (Homo sapiens, UniProt O43614)
Construct: expressed in transfected cells
Sequence (O43614 1-444): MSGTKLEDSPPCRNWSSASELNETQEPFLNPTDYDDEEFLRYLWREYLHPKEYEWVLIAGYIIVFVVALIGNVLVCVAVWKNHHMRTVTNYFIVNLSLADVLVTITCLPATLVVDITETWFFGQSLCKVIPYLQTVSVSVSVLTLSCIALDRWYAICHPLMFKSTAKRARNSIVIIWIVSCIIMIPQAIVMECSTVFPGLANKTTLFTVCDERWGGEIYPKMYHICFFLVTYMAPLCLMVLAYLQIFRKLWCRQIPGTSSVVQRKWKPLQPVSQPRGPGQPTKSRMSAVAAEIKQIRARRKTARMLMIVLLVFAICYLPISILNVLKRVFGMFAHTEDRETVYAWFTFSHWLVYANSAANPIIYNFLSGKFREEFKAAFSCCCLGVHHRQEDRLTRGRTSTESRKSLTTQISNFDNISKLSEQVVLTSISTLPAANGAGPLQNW
Experiment: Orexin type 2 receptor agonist activity, intracellular Ca2+ (FLIPR TETRA)
Type: cell-based
Details: CHO cells expressing hOX2R; Ca2+ fluorescence area; read-out: hOx2 pEC50 (converted)
This listing pairs compounds with measured EC50.

Please review the following examples before continuing.
# Compound, EC50
rows = [
    ("O=C1CCOc2ccccc2-c2cc(ccc2F)C[C@H]2[C@@H](NS(=O)(=O)CF)CCCN12", "0.001 to 0.01 µM"),
    ("O=C1CCOc2ccccc2-c2cccc(c2)C[C@H]2[C@@H](NS(=O)(=O)CF)C3(CC3)CN12", "0.01 to 0.1 µM"),
    ("CS(=O)(=O)NC1CCCN2C(=O)OCCOc3ccccc3-c3cccc(c3)CC12 (stereo not drawn)", "0.01 to 0.1 µM"),
]

Ask | Look at this compound and give its reported EC50. CCS(=O)(=O)NC1CCN2C(=O)CCCCCCc3ccccc3-c3cccc(c3)CC12 (racemic)
Reply | 0.001 to 0.01 µM

Ask | Consider the compound shown here: CCS(=O)(=O)NC1CCN2C(=O)CCCCCc3ccccc3-c3cccc(c3)CC12 (racemic) What is its recorded EC50?
Reply | 0.01 to 0.1 µM

Ask | Item under review: CN1CCOc2ccccc2-c2cccc(c2)C[C@H]2[C@@H](NS(=O)(=O)N(C)C)[C@@H](F)CN2C1=O . Reported EC50?
Reply | 0.001 to 0.01 µM

Ask | Given the entry CN1CCOc2ccccc2-c2cccc(c2)C[C@H]2[C@@H](NS(C)(=O)=O)CCN2C1=O , report its measured EC50.
Reply | 0.01 to 0.1 µM

Ask | Entry CN1CCOc2ccccc2-c2cccc(c2F)C[C@H]2[C@@H](NS(=O)(=O)CF)[C@@H](F)CN2C1=O : reported EC50 = ?
Reply | 0.001 to 0.01 µM

Ask | I would be grateful if you could share the reported EC50 for COc1c2cccc1-c1ccccc1OCCNC(=O)N1C[C@H](F)[C@H](NS(=O)(=O)CF)[C@@H]1C2 .
Reply | 0.01 to 0.1 µM

###

target: human orexin type 2 receptor (hOX2R) (Homo sapiens); construct: expressed in transfected cells; experiment: Orexin type 2 receptor agonist activity, intracellular Ca2+ (FLIPR TETRA); format: cell-based; details: CHO cells expressing hOX2R; Ca2+ fluorescence area; read-out: hOx2 pEC50 (converted)
Experimental Endpoint: EC50

Ask | What value of measured EC50 is listed for CS(=O)(=O)N[C@H]1CCCN2C(=O)CCOc3ccccc3-c3cccc(c3)C[C@@H]12 [Compound A1-68] ?
Reply | 0.01 to 0.1 µM

Ask | Given the entry O=C1CCOc2ccccc2-c2cc(F)cc(c2F)C[C@H]2[C@@H](NS(=O)(=O)CF)CCCN12 , report its measured EC50.
Reply | 0.01 to 0.1 µM

Ask | Give the measured EC50 of O=C1CCOc2ccc(F)cc2-c2cccc(c2)C[C@H]2[C@@H](NS(=O)(=O)CF)CCCN12 .
Reply | 0.001 to 0.01 µM

Ask | Please look up its EC50: CCS(=O)(=O)N[C@H]1CCN2C(=O)N(C)CCOc3ccccc3-c3cccc(c3)C[C@@H]12
Reply | 0.01 to 0.1 µM

###

Below, each entry is listed alongside its reported EC50.
molecular target: human orexin type 2 receptor (hOX2R) (Homo sapiens, UniProt O43614); construct: expressed in transfected cells; experiment: Orexin type 2 receptor agonist activity, intracellular Ca2+ (FLIPR TETRA); type: cell-based; settings: CHO cells expressing hOX2R; Ca2+ fluorescence area; read-out: hOx2 pEC50 (converted)

Examples from the recorded data:
# Compound, EC50
data = [
    ("CCS(=O)(=O)NC1CCN2C(=O)CCOCCCc3ccccc3-c3cccc(c3)CC12 (racemic)", "100 to 1000 nM"),
    ("CCS(=O)(=O)N[C@H]1CCCN2C(=O)CCOc3ccccc3-c3cccc(c3)C[C@@H]12 [Compound A1-72]", "1 to 10 nM"),
    ("CCS(=O)(=O)NC1CCN2C(=O)NCCCCCc3c(F)cc(F)cc3-c3cccc(c3)CC12 (racemic)", "10 to 100 nM"),
    ("O=C1CCOc2ccccc2-c2cccc(c2)C[C@H]2[C@@H](NS(=O)(=O)C3CC3)CCCN12", "0.1 to 1 nM"),
]

Okay, now this compound:
Ask | Look at this compound and give its reported EC50. COc1c2cccc1-c1ccccc1OCCC(=O)N1CCC[C@H](NS(C)(=O)=O)[C@@H]1C2
Reply | 1 to 10 nM
